# assay-info: Cytotoxicity against human A549 cells assessed as reduction in cell viability by Celltiter-Glo assay
# Assay type: cell-based
Reported CC50 by item:

Consider the worked cases shown below.
>>> observed_result("Cc1c(Cc2ccc(Cl)cc2)c(=O)oc2cc(OCC(O)CN3CCC(C(N)=O)CC3)ccc12 (stereo not drawn)")
"40 µM"
>>> observed_result("Cc1c(Cc2ccccc2)c(=O)oc2cc(OCC(O)CNCCCCCCO)ccc12 (stereo not drawn)")
"40.3 µM"
>>> observed_result("Cc1c(Cc2ccc(-c3ccccc3)cc2)c(=O)oc2cc(OCC(O)CN3CCC(C(N)=O)CC3)ccc12 (stereo not drawn)")
"> 100 µM"
>>> observed_result("Cc1c(Cc2ccccc2C(F)(F)F)c(=O)oc2cc(OCC(O)CN3CCC(C(N)=O)CC3)ccc12 (stereo not drawn)")
"> 100 µM"
>>> observed_result("Cc1c(Cc2cccc3ccccc23)c(=O)oc2cc(OCC(O)CN3CCC(C(N)=O)CC3)ccc12 (stereo not drawn)")
"42.4 µM"

Lookup: Query: CC50; subject: "Cc1c(Cc2ccc(OC(F)(F)F)cc2)c(=O)oc2cc(OC[C@@H](O)CN3CCC(C(N)=O)CC3)ccc12"
Found: 64.9 µM

Lookup: Query: CC50; subject: Cc1c(Cc2ccc(-c3ccc(F)cc3)cc2)c(=O)oc2cc(OCC(O)CN3CCC(C(N)=O)CC3)ccc12 (stereo not drawn)
Found: 19.3 µM

Lookup: Query: CC50; subject: Cc1c(Cc2ccc(F)cc2F)c(=O)oc2cc(OCC(O)CN3CCC(C(N)=O)CC3)ccc12 (stereo not drawn)
Found: > 100 µM

Lookup: Query: CC50; subject: Cc1c(Cc2ccccc2)c(=O)oc2cc(OCC(O)CNCCc3ccccn3)ccc12 (stereo not drawn)
Found: 54.9 µM

Lookup: Query: CC50; subject: COC(CNCCc1ccncc1)COc1ccc2c(C)c(Cc3ccccc3)c(=O)oc2c1 (stereo not drawn)
Found: 16.6 µM

Lookup: Query: CC50; subject: Cc1c(Cc2ccccc2)c(=O)oc2cc(OCC(O)CNCCc3cccnc3)ccc12 (stereo not drawn)
Found: 27.4 µM

Lookup: Query: CC50; subject: COc1ccc(Cc2c(C)c3ccc(OCC(O)CN4CCC(C(N)=O)CC4)cc3oc2=O)c(Br)c1 (stereo not drawn)
Found: 44.4 µM

Lookup: Query: CC50; subject: Cc1c(Cc2ccccc2)c(=O)oc2cc(OCC(CN3CCC(C(N)=O)CC3)Oc3ccc(F)cc3)ccc12 (stereo not drawn)
Found: 66.4 µM
